# Tested on: HeLa (Cervical)
# Procedure summary: MTT assay
# Format: cell-based, human
# Condition details: 48 h, NA stands for Not Active
# Experimental: Human cancer cell lines HepG2 (Liver), SK-MEL-1 (Skin), HT 018 (Colon), HeLa (Cervical), and MDA-MB 231 (Breast) were procured from the American Type Culture Collection (Rockville, MD, USA). MDA-MB-231 and HepG2 cell lines were maintained in DMEM; whereas SK-MEL-1, HeLa, and HT-018 were maintained in RPMI medium. The complete growth medium was supplemented with 10% (v/v) heat-inactivated FCS, 2 mM L-glutamine, and antimycotic-antibiotic solution. […]
Experimental readout: IC50 (µM)
Use µM as the unit, but write only the number.

N.N.[Cl][Pt][Cl] [Cisplatin, cisplatin, reference compound] has a reported IC50 of 6
